Molecular target: wild-type Epidermal Growth Factor Receptor (EGFR) (Homo sapiens (Human))
Assay: WT-EGFR Kinase Assay (TR-FRET, 2 mM ATP)
Assay type: biochemical
Conditions: read-out: EGFR Wildtyp- 2 mM ATP IC50 [mol/l] (median)
measurement-kind: IC50 (µM)

compound	lt-gt-eq	readout-number
COCCN1CCc2[nH]c(-c3ccnc(NC(=O)Cc4ccc(F)cc4)c3)c(Nc3ccccc3)c2C1=O [Example 53]	=	6.03
CN1CCc2[nH]c(-c3ccnc(NC(=O)C(CO)c4ccc(F)cc4)c3)c(Nc3ccccc3)c2C1=O (stereo not shown) [Example 17]	>	20
CN1CCc2[nH]c(-c3ccnc(NC(=O)Cc4ccc(F)c(F)c4)c3)c(Nc3ccccc3)c2C1=O [Example 83]	=	2.92
CCC(C(=O)Nc1cc(-c2[nH]c3c(c2Nc2ccccc2)C(=O)N(C)CC3)ccn1)c1ccc(F)cc1 (single isomer, unassigned; (+)) [Example 77]	>	20

----------
Listed next: entries and their corresponding IC50.
Molecular target: human CSNK1A1 (Homo sapiens (Human))
Sequence (P48729 whole entry): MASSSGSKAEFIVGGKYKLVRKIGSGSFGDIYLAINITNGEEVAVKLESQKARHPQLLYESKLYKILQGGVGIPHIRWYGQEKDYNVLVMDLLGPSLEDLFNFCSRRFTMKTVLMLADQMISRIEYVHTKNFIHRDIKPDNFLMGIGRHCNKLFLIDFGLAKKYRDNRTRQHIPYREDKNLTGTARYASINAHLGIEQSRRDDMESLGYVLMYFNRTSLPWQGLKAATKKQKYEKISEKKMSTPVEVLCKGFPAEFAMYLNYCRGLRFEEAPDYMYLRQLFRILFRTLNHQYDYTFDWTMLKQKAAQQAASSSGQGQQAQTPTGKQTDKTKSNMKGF
Test: CSNK1A1 Assay 2 (ADP-Glo, 1 μM ATP)
Format: biochemical
Settings: substrate biotin-Ahx-KRRRAL-pS-VASLPGL, read-out: CSNK1A1 Assay 2 IC50 [mol/l] (median)
Method: CSNK1A1-inhibitory activity of compounds of the present invention in presence of 1 μM adenosine-tri-phosphate (ATP) was quantified employing the CSNK1A1 assay as described in the following paragraphs. In essence, the enzyme activity is measured by quantification of the adenosine-di-phosphate (ADP), which is generated as a co-product of the enzyme reaction, via the “ADP-Glo™ Kinase Assay” kit from the company Promega. […]

compound	IC50 [nM]
CC1Cc2[nH]c(-c3ccnc(NC(=O)Cc4ccc(F)cc4)c3)c(Nc3ccccc3F)c2C(=O)N1C (racemic) [Example 100]	3.97
O=C1NC2(CC2)Cc2[nH]c(-c3ccnc(NC(=O)C(CC(F)F)c4ccc(F)cc4)c3)c(Nc3ccccc3)c21 (racemic) [Example 147]	6.2
CN1CCc2[nH]c(-c3ccnc(NC(=O)C(CCN4CCOCC4)c4ccccc4)c3)c(Nc3ccccc3)c2C1=O (single isomer, unassigned) [Example 32]	72.2
CC1(C)Cc2[nH]c(-c3ccnc(NC(=O)C(CC(F)F)c4ccc(F)cc4)c3)c(Nc3ccccc3)c2C(=O)N1 (single isomer, unassigned) [Example 50]	51
CN1CCc2[nH]c(-c3ccnc(NC(=O)C(CCN4CCOCC4)c4ccccc4)c3)c(Nc3ccccc3)c2C1=O (stereo not shown) [Example 30]	8.01
CC1(C)Cc2[nH]c(-c3ccnc(NC(=O)C(CC(F)F)c4ccc(F)cc4)c3)c(Nc3ccccc3)c2C(=O)N1 (racemic) [Example 48]	7.69
CC1(C)Cc2[nH]c(-c3ccnc(NC(=O)Cc4ccc(F)cc4)c3)c(Nc3cccc(F)c3Cl)c2C(=O)N1	6.69
CN1CCc2[nH]c(-c3ccnc(NC(=O)Cc4ccc(F)cc4)c3)c(Nc3ccccc3)c2C1=O	1.97
Cc1ccc(CC(=O)Nc2cc(-c3[nH]c4c(c3Nc3ccccc3)C(=O)N(C)CC4)ccn2)cc1	3.2
O=C1NC2(CCC2)Cc2[nH]c(-c3ccnc(NC(=O)C(CC(F)F)c4ccc(F)cc4)c3)c(Nc3cccc(F)c3Cl)c21 (single isomer, unassigned; enantiomer 1) [Example 124]	74.6
O=C1NC2(CCC2)Cc2[nH]c(-c3ccnc(NC(=O)C(CC(F)F)c4ccc(F)cc4)c3)c(Nc3cccc(F)c3Cl)c21 (single isomer, unassigned; enantiomer 2) [Example 125]	10.5
COCCN1CCc2[nH]c(-c3ccnc(NC(=O)Cc4ccc(F)cc4)c3)c(Nc3ccccc3)c2C1=O	9.68
Cc1ccccc1Nc1c(-c2ccnc(NC(=O)C(CC(F)F)c3ccc(F)cc3)c2)[nH]c2c1C(=O)NC1(CCC1)C2 (racemic) [Example 143]	16.7

----------
Molecular target: wild-type Epidermal Growth Factor Receptor (EGFR) (Homo sapiens (Human), UniProt P00533)
Sequence (P00533 669-1210): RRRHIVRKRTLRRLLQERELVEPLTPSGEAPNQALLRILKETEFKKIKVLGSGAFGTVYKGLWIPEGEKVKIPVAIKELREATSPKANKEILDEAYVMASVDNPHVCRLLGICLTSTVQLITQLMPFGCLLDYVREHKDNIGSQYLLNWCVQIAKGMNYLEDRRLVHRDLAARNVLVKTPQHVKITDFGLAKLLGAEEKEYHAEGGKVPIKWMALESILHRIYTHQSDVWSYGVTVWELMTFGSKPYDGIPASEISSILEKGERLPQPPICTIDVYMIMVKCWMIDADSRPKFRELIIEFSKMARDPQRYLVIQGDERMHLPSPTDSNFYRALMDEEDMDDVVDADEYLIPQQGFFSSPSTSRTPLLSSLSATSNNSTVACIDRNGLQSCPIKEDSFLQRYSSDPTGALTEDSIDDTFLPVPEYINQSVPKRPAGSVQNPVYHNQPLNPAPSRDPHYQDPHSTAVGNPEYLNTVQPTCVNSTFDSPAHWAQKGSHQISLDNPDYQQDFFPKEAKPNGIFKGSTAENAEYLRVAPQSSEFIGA
Assay: WT-EGFR Kinase Assay (TR-FRET, 2 mM ATP)
Format: biochemical
Details: read-out: EGFR Wildtyp- 2 mM ATP IC50 [mol/l] (median)
pIC50: −log10 of the molar value.
Listed next: entries and their corresponding pIC50.

compound	lt-gt-eq	pIC50
CN1CCc2[nH]c(-c3ccnc(NC(=O)Cc4cnccn4)c3)c(Nc3ccccc3)c2C1=O [Example 114]	=	5.69
CN1CCc2[nH]c(-c3ccnc(NC(=O)C(CC(F)F)c4ccccc4)c3)c(Nc3ccccc3)c2C1=O (stereo not shown) [Example 33]	<	4.70
CN1C(=O)c2c([nH]c(-c3ccnc(NC(=O)C(CC(F)F)c4ccc(F)cc4)c3)c2Nc2ccccc2)CC12CCC2 (single isomer, unassigned; enantiomer 2) [Example 162]	<	4.70
CN1CCc2[nH]c(-c3ccnc(NC(=O)Cc4ccc(F)cc4)c3)c(Nc3cc(F)ccc3F)c2C1=O [Example 150]	=	4.74
CN1CCc2[nH]c(-c3ccnc(NC(=O)Cc4cccc(S(C)(=O)=O)c4)c3)c(Nc3ccccc3)c2C1=O [Example 69]	=	6.29
CN1CCc2[nH]c(-c3ccnc(NC(=O)C(CCN4CCOCC4)c4ccccc4)c3)c(Nc3ccccc3)c2C1=O (stereo not shown) [Example 30]	<	4.70
COC(=O)c1ccc(CC(=O)Nc2cc(-c3[nH]c4c(c3Nc3ccccc3)C(=O)N(C)CC4)ccn2)cc1 [Example 117]	=	5.90

----------
Target: UniProt P48730
Sequence (P48730 whole entry): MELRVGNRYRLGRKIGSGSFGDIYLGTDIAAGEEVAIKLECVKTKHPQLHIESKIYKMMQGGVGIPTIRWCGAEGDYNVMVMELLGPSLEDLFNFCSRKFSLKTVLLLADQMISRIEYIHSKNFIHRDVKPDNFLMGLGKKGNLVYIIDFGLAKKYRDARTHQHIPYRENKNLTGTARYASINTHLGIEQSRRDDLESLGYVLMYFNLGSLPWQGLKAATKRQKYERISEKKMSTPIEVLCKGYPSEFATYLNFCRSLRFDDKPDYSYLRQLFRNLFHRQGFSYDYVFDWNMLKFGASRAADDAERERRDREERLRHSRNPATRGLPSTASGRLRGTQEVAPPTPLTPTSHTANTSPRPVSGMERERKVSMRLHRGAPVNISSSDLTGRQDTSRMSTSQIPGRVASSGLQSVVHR
pIC50: −log10 of the molar value.
Decision: pIC50 >= 8 yields Y, all other cases yield N.

compound	cat
O=C1NC2(CC2)Cc2[nH]c(-c3ccnc(NC(=O)C(CC(F)F)c4ccc(F)cc4)c3)c(Nc3ccccc3)c21 (single isomer, unassigned; enantiomer 2) [Example 149]	N
CN1CCc2[nH]c(-c3ccnc(NC(=O)Cc4cnccn4)c3)c(Nc3ccccc3)c2C1=O	Y
CC1(C)Cc2[nH]c(-c3ccnc(NC(=O)C(CC(F)F)c4ccc(F)cc4)c3)c(Nc3cccc(F)n3)c2C(=O)N1 (single isomer, unassigned; enantiomer 1) [Example 129]	Y

----------
Target: UniProt:P48729
Assay: CSNK1A1 High ATP Assay (ADP-Glo, 1 mM ATP)
Format: biochemical
Conditions: read-out: CSNK1A1 high ATP assay IC50 [mol/l] (median)
Returns: string. Value is Yes if measured IC50 is below 100 nM, and No if it is greater than or equal to it.

molecule	cat
CC1(C)Cc2[nH]c(-c3ccnc(NC(=O)C(CC(F)F)c4ccc(F)cc4)c3)c(Nc3cccc(F)c3Cl)c2C(=O)N1 (racemic) [Example 109]	No
CN1C(=O)c2c([nH]c(-c3ccnc(NC(=O)C(CC(F)F)c4ccc(F)cc4)c3)c2Nc2ccccc2F)CC1(C)C (single isomer, unassigned) [Example 46]	No
CC(C(=O)Nc1cc(-c2[nH]c3c(c2Nc2ccccc2)C(=O)N(C)CC3)ccn1)c1ccncc1 (racemic) [Example 72]	Yes
O=C(Cc1ccc(F)cc1)Nc1cc(-c2[nH]c3c(c2Nc2cccc(F)c2Cl)C(=O)NCC3)ccn1 [Example 87]	Yes
C[C@@H](C(=O)Nc1cc(-c2[nH]c3c(c2Nc2ccccc2)C(=O)N(C)CC3)ccn1)c1ccc(F)cc1 (single isomer, unassigned) [Example 6]	No
CC1(C)Cc2[nH]c(-c3ccnc(NC(=O)Cc4ccc(F)cc4)c3)c(Nc3cccc(F)c3Cl)c2C(=O)N1 [Example 112]	No

----------
Target: wild-type Epidermal Growth Factor Receptor (EGFR) (Homo sapiens (Human))
Assay: WT-EGFR Kinase Assay (TR-FRET, 2 mM ATP)
Format: biochemical
Conditions: EGFR Wildtyp- 2 mM ATP IC50 [mol/l] (median)
Returns: string. Value is Yes if measured IC50 is below 4 µM, and No if it is greater than or equal to it.

molecule	target-or-test-system	cat
CCC(C(=O)Nc1cc(-c2[nH]c3c(c2Nc2ccccc2)C(=O)N(C)CC3)ccn1)c1ccc(F)cc1 (racemic) [Example 75]	wild-type Epidermal Growth Factor Receptor (EGFR) (Homo sapiens (Human))	No
CC(C(=O)Nc1cc(-c2[nH]c3c(c2Nc2ccccc2)C(=O)NCC3)ccn1)c1ccc(F)cc1 (single isomer, unassigned) [Example 10]	wild-type Epidermal Growth Factor Receptor (EGFR) (Homo sapiens (Human))	No
Cc1ccccc1Nc1c(-c2ccnc(NC(=O)C(CC(F)F)c3ccc(F)cc3)c2)[nH]c2c1C(=O)NC1(CCC1)C2 (single isomer, unassigned; enantiomer 1) [Example 144]	wild-type Epidermal Growth Factor Receptor (EGFR) (Homo sapiens (Human))	No
O=C1NC2(CCC2)Cc2[nH]c(-c3ccnc(NC(=O)C(CC(F)F)c4ccc(F)cc4)c3)c(Nc3cccc(F)c3Cl)c21 (racemic) [Example 123]	wild-type Epidermal Growth Factor Receptor (EGFR) (Homo sapiens (Human))	Yes
CN1CCc2[nH]c(-c3ccnc(NC(=O)C(CC(F)F)c4ccc(F)cc4)c3)c(Nc3ccccc3)c2C1=O (single isomer, unassigned; (+)) [Example 63]	wild-type Epidermal Growth Factor Receptor (EGFR) (Homo sapiens (Human))	No
CC(C(=O)Nc1cc(-c2[nH]c3c(c2Nc2ccccc2)C(=O)N(C)C(C)C3)ccn1)c1ccc(F)cc1 (single isomer, unassigned; (-)) [Example 94]	wild-type Epidermal Growth Factor Receptor (EGFR) (Homo sapiens (Human))	No
CC1(C)Cc2[nH]c(-c3ccnc(NC(=O)C(CN)c4ccc(F)cc4)c3)c(Nc3ccccc3)c2C(=O)N1 (single isomer, unassigned; enantiomer 1) [Example 140]	wild-type Epidermal Growth Factor Receptor (EGFR) (Homo sapiens (Human))	No
CN(C)CCCC(C(=O)Nc1cc(-c2[nH]c3c(c2Nc2ccccc2)C(=O)N(C)CC3)ccn1)c1ccccc1 (single isomer, unassigned; (+)) [Example 60]	wild-type Epidermal Growth Factor Receptor (EGFR) (Homo sapiens (Human))	No
O=C1NC2(CCC2)Cc2[nH]c(-c3ccnc(NC(=O)C(CC(F)F)c4ccc(F)cc4)c3)c(Nc3ccccc3)c21 (single isomer, unassigned; (+)) [Example 55]	wild-type Epidermal Growth Factor Receptor (EGFR) (Homo sapiens (Human))	Yes
CCC(C(=O)Nc1cc(-c2[nH]c3c(c2Nc2ccccc2)C(=O)N(C)CC3)ccn1)c1ccc(F)cc1 (single isomer, unassigned; (-)) [Example 76]	wild-type Epidermal Growth Factor Receptor (EGFR) (Homo sapiens (Human))	No
CC1Cc2[nH]c(-c3ccnc(NC(=O)Cc4ccc(F)cc4)c3)c(Nc3ccccc3F)c2C(=O)N1C (single isomer, unassigned; (-)) [Example 102]	wild-type Epidermal Growth Factor Receptor (EGFR) (Homo sapiens (Human))	Yes
CC(C(=O)Nc1cc(-c2[nH]c3c(c2Nc2ccccc2)C(=O)N(C)CC3)ccn1)c1ccc(Cl)cc1 (racemic) [Example 79]	wild-type Epidermal Growth Factor Receptor (EGFR) (Homo sapiens (Human))	No
CC1Cc2[nH]c(-c3ccnc(NC(=O)Cc4ccc(F)cc4)c3)c(Nc3ccccc3F)c2C(=O)N1C (racemic) [Example 100]	wild-type Epidermal Growth Factor Receptor (EGFR) (Homo sapiens (Human))	Yes
CC1(C)Cc2[nH]c(-c3ccnc(NC(=O)C(CNC(=O)OC(C)(C)C)c4ccc(F)cc4)c3)c(Nc3ccccc3)c2C(=O)N1 (racemic)	wild-type Epidermal Growth Factor Receptor (EGFR) (Homo sapiens (Human))	No
